- TEST_SYSTEM: T1, Human TNFR2 expressed on cells (CHO-hTNFR2 cells) (human, UniProt P20333 23-461)
- T1 construct: also called CHO cells overexpressing human TNFR2; human TNFR2 reporter cells (HEK293)
- T1 sequence: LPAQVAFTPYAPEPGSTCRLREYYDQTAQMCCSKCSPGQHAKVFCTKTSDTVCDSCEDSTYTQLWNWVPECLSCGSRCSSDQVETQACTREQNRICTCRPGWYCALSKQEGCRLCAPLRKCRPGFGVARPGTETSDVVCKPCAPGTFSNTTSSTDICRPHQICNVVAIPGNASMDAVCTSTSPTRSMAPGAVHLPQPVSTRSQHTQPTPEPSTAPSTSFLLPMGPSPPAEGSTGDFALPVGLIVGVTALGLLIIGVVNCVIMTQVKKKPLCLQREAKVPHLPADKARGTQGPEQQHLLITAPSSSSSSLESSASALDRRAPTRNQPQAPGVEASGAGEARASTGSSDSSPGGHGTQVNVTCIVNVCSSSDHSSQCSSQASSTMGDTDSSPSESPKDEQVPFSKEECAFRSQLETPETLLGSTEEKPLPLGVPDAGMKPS
- PROTOCOL_TEXT: flow cytometry; soluble scFv inhibiting TNF (1 nM) binding to CHO-hTNFR2 cells (FIG. 3)
MEASURED_ATTRIBUTE: pIC50
Please keep in mind that pIC50 is minus log10 of the molar concentration; only the number is needed.

BINDER: UC6 (9-1A6) scFv (scFv, Soluble scFv) scFv: QVQLVQSGAEVKKPGSSVKVSCKASGDSFNNFGISWVRQAPGQGLEWMGGIVPVLGIATYAQKFQGRVTITADESTSTAYMELSSLRSEDTAVYYCARGSAWYDGSFQYWGQGTLVTVSSASSGGSTSGSGKPGSGEGSSGSAREIVLTQSPGTLSLSPGERATLSCRASQSVSSTFLAWYQQKPGQAPRLLIYDASTRATGIPDRFSGSDSGTDFTLTISRLEPEDFAVYYCQQYDSWPFTFGQGTKVEIKR
pIC50: 7.16
--
BINDER: UC3 (S4-2 1E5) scFv (scFv, Soluble scFv) scFv: QVQLLESGGGLVQPGGSLRLSCAASGFSFSSYAMSWVRQAPGKGLEWVSGISAGGGETFYADSVKGRFTISRDNSKNTLYLQMNSLRAEDTAVYYCARVHPISYGFDIWGQGTLVTVSSASSGGSTSGSGKPGSGEGSSGSARDIQMTQSPSSLSASVGDRVTITCQASQDIKKYLNWYQQKPGKAPKLLIYDASTLQTGVPSRFSGSGSGTDFTFTISSLQPEDIATYYCQQSDNTPVTFGQGTKVEIKR
pIC50: 6.96

What does the record list as pIC50 for UC5 (8-2A10) scFv (scFv, Soluble scFv) scFv: QVQLLESGGGLVQPGGSLRLSCAASGFTFNTYAMTWVRQAPGKGLEWVSAISDSGGDTFYADSVKGRFTISRDNSKNTLYLQMNSLRAEDTAVYYCARDGTYAARFDYWGQGTLVTVSSASSGGSTSGSGKPGSGEGSSGSARDIQMTQSPSSLSASVGDRVTITCQASQDISNYLNWYQQKPGKAPKLLIYDASTLETGVPSRFSGSGSGTDFTFTISSLQPEDIATYYCQQSDSFPITFGQGTKVEIKR ?
6.13

What does the record list as pIC50 for UC 8 (9-2A4) scFv (scFv, Soluble scFv) scFv: QVQLVQSGAEVKKPGSSVKVSCKASGDTFSNYGFSWVRQAPGQGLEWMGGIVPVFGIATYAQKFQGRVTITADESTSTAYMELSSLRSEDTAVYYCARDYSYYPDDPRYFEYWGQGTLVTVSSASSGGSTSGSGKPGSGEGSSGSAREIVLTQSPGTLSLSPGERATLSCRASQSVSSTFLAWYQQKPGQAPRLLIYAASSRATGIPDRFSGSGSGTDFTLTISRLEPEDFAVYYCQQYGSWPLTFGQGTKVEIKR ?
7.67
